I'd be grateful if you could share measured half-life for these entries.
# test summary: Stability in human serum assessed as half life
# Assay type: ADME, cell-free
Numbered stars: 1 amine (or outer) side, 2 acyl side, 3 side chain; on linkers, the order of the positions; unused ones are H or OH. Square brackets hold non-standard residues; d marks the D form. Peptide text beside a SMILES is read from it. X1 = CC(C)C[C@H](N[*:1])P(=O)(O)C[C@@H](C)C(=O)[*:2]
Answers are plain numbers, in min.

# compound, assay endpoint, readout unit, measured number
rows = [
    ("CC(C)C[C@H](NC(=O)[C@@H](N)CCC(=O)O)C(=O)N[C@@H](CC(=O)O)C(=O)N[C@@H](CC(C)C)P(=O)(O)C[C@@H](C)C(=O)N[C@H](C(=O)N[C@@H](CCC(=O)O)C(=O)N[C@@H](Cc1ccccc1)C(=O)O)C(C)C (H-ELD[X1]VEF-OH)", "half-life", "min", 14.8),
]

[ask] Sample CC(CP(=O)(O)C1CCCCCC[C@H](NC(=O)[C@@H](N)CCC(=O)O)C(=O)N[C@@H](CC(=O)O)C(=O)N1)C(=O)N[C@H](C(=O)N[C@@H](CCC(=O)O)C(=O)N[C@@H](Cc1ccccc1)C(=O)O)C(C)C (mixture of isomers; form 1) — what was its half-life?
[reply] 43.9
